# experiment.description: Viability qHTS for spleen associated tyrosine kinase inhibitor (SYKi) drug resistant MV4-11 cells (AID 1963824); also: nearly all actives have a fitted effect of over 35% in size
# applied.conditions: SYKi-resistant MV4-11 viability, CellTiter-Glo, 72 h; series mostly up to 45 µM
Inconclusive results are not listed. Calls of active or inactive are those of the source. Calls follow the shape of the dose curve; as a rule, active = well fitted cell-killing curve with a large enough effect; inconclusive = small, poorly fitted or top-dose-only effect, or effect the other way; inactive = no such curve, though single readings can be large or run the other way.
Use one of these outcomes when replying: 1 (active), 0 (inactive)

### Prompt Record request — test call for Nc1nc(=O)n([C@@H]2O[C@H](CO)[C@@H](O)[C@@H]2F)cc1I
### Response 0

### Prompt Cool, now Cc1c(OCC(F)(F)F)ccnc1CS(=O)c1nc2ccccc2[nH]1 (stereo not drawn)
### Response 1

### Prompt And what about the molecule CCCCCCCC(=O)OCC(O)CO (stereo not drawn) ?
### Response 0

### Prompt Another molecule: CC(C)(C)n1nc(Cc2cccc([N+](=O)[O-])c2)c2c(N)ncnc21
### Response 1

### Prompt Moving on to C=CCOc1ccccc1OCC(O)CNC(C)C (stereo not drawn)
### Response 0

### Prompt Could you do the same for CC[C@H](CO)Nc1nc(Nc2cccc(-c3ccccn3)c2)c2ncn(C(C)C)c2n1 , please?
### Response 1

### Prompt Next molecule: NC(=O)c1cc[n+](CC2=C(C(=O)[O-])N3C(=O)[C@@H](NC(=O)Cc4cccs4)[C@H]3SC2)cc1
### Response 0

### Prompt Then what about the molecule NS(=O)(=O)c1ccc(Cc2c(-c3cccc(-c4ccccc4)c3)nn(-c3nc(C(=O)O)cs3)c2CC2CC2)cc1 ?
### Response 1

### Prompt Query OC[C@H]1O[C@@H](Oc2cc(O)cc(-c3cc4ccc(O)cc4o3)c2)[C@H](O)[C@@H](O)[C@@H]1O next
### Response 1

### Prompt Same question for Cc1c(-c2ccnc(Nc3cc(Br)cc(C(F)(F)F)c3)n2)sc(=O)n1C please.
### Response 0

### Prompt Okay, and CC1(C)[C@H](C(=O)O)N2C(=O)C[C@H]2S1(=O)=O ?
### Response 0

### Prompt Item: CC(=O)OCC(=O)[C@@]1(O)[C@H](OC(C)=O)C[C@H]2[C@@H]3CCC4=CC(=O)C=C[C@]4(C)[C@@]3(F)[C@@H](O)C[C@@]21C
### Response 0

### Prompt Likewise for CCOCc1cc(OC)c(-c2ccc(C[C@H](NC(=O)c3c(F)cccc3F)C(=O)O)cc2)c(OC)c1 ?
### Response 0

### Prompt What do you get for O=C(NCc1ccccc1)c1ccc2c(=O)n(-c3cccc(C(F)(F)F)c3)c(=S)[nH]c2c1 ?
### Response 0

### Prompt Param item: O=S(=O)(O)c1cc(I)c(O)c2ncccc12
### Response 0

### Prompt Likewise for C1Cc2[nH]nc(-c3nn[nH]n3)c2C1 ?
### Response 0

### Prompt Also CCC(CC)CC1(C(=O)Nc2ccccc2SC(=O)C(C)C)CCCCC1 , if possible.
### Response 0

### Prompt Further, for CN=C(NC#N)NCCSCc1csc(N=C(N)N)n1 ?
### Response 0

### Prompt Proceed to CCN(CC)CC(=O)Nc1c(C)cccc1C(=O)OC
### Response 0

### Prompt One more molecule: c1ccc(-c2oc3ncnc(NC[C@@H]4CCCO4)c3c2-c2ccccc2)cc1
### Response 1

### Prompt Item: C=CC(C)(O)CC[C@@H]1[C@@]2(C)CCCC(C)(C)C2CC[C@@]1(C)O (stereo partly drawn)
### Response 1

### Prompt Continue with COC(=O)C[C@@H]1C(C(=O)O)=CO[C@@H](O[C@@H]2O[C@H](CO)[C@@H](O)[C@H](O)[C@H]2O)/C1=C\COC(=O)/C=C\c1ccccc1
### Response 0

### Prompt // query: CN1CCCC(CC2c3ccccc3Sc3ccccc32)C1 (stereo not drawn)
### Response 1

### Prompt Also, CCC(=O)O[C@]1(C(=O)CCl)[C@@H](C)C[C@H]2[C@@H]3C[C@H](F)C4=CC(=O)C=C[C@]4(C)[C@@]3(F)[C@@H](O)C[C@@]21C please.
### Response 1

### Prompt Next entry: COc1cc2ncnc(Nc3ccc(Oc4ccccc4)cc3)c2cc1OC
### Response 1

### Prompt // next record C[C@@H]1CCC2C(C)(C)[C@H](O)CC[C@]2(C)[C@@]12Cc1c(O)cc3c(c1O2)CN([C@@H](CCC(=O)O)C(=O)O)C3=O (stereo partly drawn)
### Response 0

### Prompt What about this molecule? COC(=O)C1(O)C(OC(C)=O)CCC2C3(CC(c4ccoc4)OC3=O)C(C)=CCC21C(=O)OC (stereo not drawn)
### Response 0

### Prompt Another molecule to check: COc1cc2c(cc1NS(=O)(=O)c1ccc(Br)cc1C)n(C)c(=O)n2C
### Response 1

### Prompt Another molecule to look at: CCn1cc(C(=O)O)c(=O)c2cnc(N3CCNCC3)nc21
### Response 1

### Prompt How about this molecule: COc1cc(-c2cc(-c3ccc(N4CCNCC4)cc3)cnc2C)cc(OC)c1OC
### Response 1

### Prompt Here is the next molecule: COc1cccc(CN(C(=O)CC(C)(C)C)C2CC(C(=O)N3CCNCC3)N(Cc3ccc4c(c3)OCO4)C2)c1 (stereo not drawn)
### Response 1

### Prompt Same lookup for CC1CCC23COC(=O)C2=CC(O)CC3C1(C)CCc1ccoc1 (stereo not drawn) , please.
### Response 0

### Prompt Please give the result for COc1ccc(C=Cc2cc(OC)c(OC)c(OC)c2)cc1NC(=O)[C@H](N)CO too.
### Response 1

### Prompt Do the same for C=CC(=O)Nc1ccc2ncnc(Nc3cccc(Br)c3)c2c1 please
### Response 1

### Prompt One more molecule: CC(C)(C(=O)O)c1ccc(C(O)CCCN2CCC(C(O)(c3ccccc3)c3ccccc3)CC2)cc1 (stereo not drawn)
### Response 0

### Prompt Repeat with CNc1nc(Nc2cnn([C@H]3CCN(C4COC4)C[C@@H]3F)c2Cl)ncc1C(F)(F)F
### Response 1

### Prompt Moving on to the next molecule: CCOC(=O)C1=CCCCC1S(=O)(=O)Nc1ccc(F)cc1Cl (stereo not drawn)
### Response 1

### Prompt And what about the molecule C[C@]12CC[C@@H]3c4ccc(O)cc4C[C@@H](CCCCCCCCCS(=O)CCCC(F)(F)C(F)(F)F)[C@H]3[C@H]1CC[C@H]2O (stereo partly drawn) ?
### Response 1
